Below, each of the compounds is paired with its reported composite z-score value.
# assay protocol: small molecules captured by biotinylated probe aFGF2 – biochemical, small-molecule microarray, fluorescence 635/667, stem cell growth factor project, primary screen (AID 1067);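 further: measures binding of biotinylated aFGF2 protein to printed compounds on slides; z-score merges feature fluorescence and signal-to-noise across triplicate slides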
# recorded conditions: higher = more signal
The response must contain the number and no unit.

- compound: "C=C[C@@H](OC)[C@H](OC(=O)Nc1ccc(OC)cc1)c1ccc(O)c(F)c1"
  composite z-score: -0.142

Field request: composite z-score | item: O=C1OCCC/C=C\[C@H]2OC34C=CCN(c5ccc6ccccc6c5)C(=O)[C@H]3N(CCO)C(=O)[C@@H]4C12 (stereo partly drawn)
-0.159

For the compound `Cc1ccc(S[C@]2(C(=O)O)CC(=O)N(C3CCCCC3)[C@@H]2c2ccc(CO)cc2I)cc1` , what composite z-score is on record?
-0.0986

Need composite z-score, item `CO[C@H]1O[C@H](CO)[C@@H](OC(=O)CCc2ccccc2)[C@@H]2OC(=O)[C@@H](Cc3ccccc3)C/C=C/C[C@H](Cc3ccccc3)C(=O)O[C@@H]12`
-0.0962

Request the reported composite z-score associated with `[N-]=[N+]=Nc1ccccc1C[C@]1(C(=O)N2CCOCC2)COC(c2ccc(OCCCO)cc2)=N1`
-0.0442

---

# assay protocol: changes in parasitized red cell lysis, either direction – P. falciparum Indochina, OD700, 3 h, PSAC antagonist project, primary screen (AID 1156)
# recorded conditions: P. falciparum-infected erythrocytes, osmotic lysis, higher = more signal, called active from +8 up or from −8 down
observation type: z-score
Kindly provide the number alone.

Illustrative cases are given below, each with its answer.
- molecule: "CC1CC/C=C\\[C@H]2OC34C=CCN(c5ccc(Cl)cc5)C(=O)[C@H]3N(C(C)CO)C(=O)[C@]4(C)C2C(=O)O1 (stereo partly drawn)"
  z-score: 0.335
- molecule: "NCCCCCNC(=O)[C@H]1C[C@H]2C(=O)N3CCC[C@H]3C(=O)N2[C@H]1c1cccc(OCCO)c1"
  z-score: 0.428
- molecule: "C=CC[C@@]1(C(=O)NCCCOC)N=C(c2ccc(OCCCO)cc2)O[C@@H]1c1ccccc1"
  z-score: 1.32
- molecule: "CCCCCN1CC=CC23O[C@@H]4C=CCCOC(=O)C4[C@H]2C(=O)N(CCCCCCO)[C@@H]3C1=O (stereo partly drawn)"
  z-score: 1.01
- molecule: "CCCCN1CC=CC23O[C@@H]4/C=C\\CCCOC(=O)C4[C@H]2C(=O)N(CCO)[C@@H]3C1=O (stereo partly drawn)"
  z-score: 0.504

Looking for the measured z-score of `COCCOC(=O)N1C(=O)[C@@]2(c3cc(C#CCC(C(=O)OC)C(=O)OC)ccc31)[C@H](c1ccc(OCCO)cc1)N1[C@H](c3ccccc3)[C@H](c3ccccc3)OC(=O)[C@H]1[C@@H]2C(=O)N1CCc2cc(OC)c(OC)cc2C1` , can you help?
0.324

Which z-score is listed for `O=C1[C@H]2C=C(I)[C@H](C[C@@H]2OCCOCCO)[C@@]12CO2` ?
-0.321

I am curious: what z-score value has been reported for `COCCOC(=O)N1C(=O)[C@@]2(c3cc(C#CCNC(N)=O)ccc31)[C@H](C(N)=O)[C@H]1C(=O)O[C@H](c3ccccc3)[C@H](c3ccccc3)N1[C@@H]2c1ccccc1OCCO` ?
1.18

---

# assay protocol: forskolin-driven CRE-LacZ activity in PC12 – cell-based, CRE-LacZ reporter, forskolin-stimulated, primary screen (AID 1146);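 further: PC12 cells with 6xCRE LacZ reporter stimulated by forskolin 10 µM; beta-galactosidase reporter signal reflecting CREB driven transcription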
# recorded conditions: luminescence, 4.5 h, higher = more signal, called active from +8 up or from −8 down
The entries below are paired with their reported z-score.
No unit in the answer, please; the number alone is enough.

Worked examples, 6 compounds total:
- compound: "CCCNC(=O)[C@@]1(C)c2ccccc2C(=O)N(c2ccc(C)cn2)[C@H]1c1ccc(CO)cc1"
  reported measurement: -0.0049
- compound: "COc1cccc(C)c1NC(=O)O[C@H]1[C@H](OC(=O)Nc2ccccc2-c2ccccc2)[C@H](OC(=O)Nc2ccccc2-c2ccccc2)[C@@H](OC)O[C@@H]1CO"
  reported measurement: -0.433
- compound: "Cc1ccc(S[C@]2(C(=O)NCC(F)(F)F)CC(=O)N(Cc3cc(C(F)(F)F)cc(C(F)(F)F)c3)[C@@H]2c2ccc(CO)cc2I)cc1"
  reported measurement: 0.423
- compound: "COC(=O)C1=CC(CCCO)=CC(c2cccs2)N(Cc2cccc(OC(F)(F)F)c2)C=C1C(=O)OC (configuration not stated)"
  reported measurement: 0.0187
- compound: "COCCOC(=O)N1C(=O)[C@@]2(c3cc(C#CCCO)ccc31)[C@H](C(=O)Nc1nc3ccccc3s1)[C@H]1C(=O)O[C@H](c3ccccc3)[C@H](c3ccccc3)N1[C@@H]2c1ccc(O)cc1"
  reported measurement: 2.14
- compound: "COC(=O)[C@@]1(Cc2ccc(OC)cc2)[C@H]2c3cc(C(=O)N4CCCC4)n(CCc4c[nH]c5ccc(O)cc45)c3C[C@H]2CN1C(=O)c1ccccc1"
  reported measurement: -0.397

Okay, now this compound:
Could you tell me which z-score is on file for `CCCC[C@@H]1C[C@H]1[C@@H](NC(=O)c1cccs1)c1ccccc1C(F)(F)F` ?
1.4

---

Quick list: composite z-score per entry.
# assay protocol: probe aLAP1 signal on lysate-treated microarray – cell lysate, small-molecule microarray, COS7 lysate, primary screen (AID 1124);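 further: lysate comes from COS7 cells expressing LAP1 and is applied at 0.3 µg/mL; score merges spot fluorescence near 667 nm with signal-to-noise over triplicate slides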
# recorded conditions: probe aLAP1, fluorescence, higher = more signal
Keep it simple and answer with nothing but the number.

Some compounds with recorded composite z-score:
- compound: "[N-]=[N+]=Nc1ccccc1C[C@]1(C(=O)NCC(O)CO)COC(c2ccc(OCCCO)cc2)=N1 (stereo not given in full)"
  observation type: "composite z-score"
  reported measurement: 0.282
- compound: "CCCCC(CC)C(O)C1C=CC2C(=O)N(C)C(=O)C2N1Nc1ccccc1 (stereo not given)"
  observation type: "composite z-score"
  reported measurement: 0.245
- compound: "COCC(=C=CC[C@H](O)c1ccc(CO)o1)CCO"
  observation type: "composite z-score"
  reported measurement: -0.0497
- compound: "OCCCC1=CC(c2ccc(CN3CCCC3)cc2)N(Cc2cc3c(cc2Br)OCO3)CC1 (stereo not given)"
  observation type: "composite z-score"
  reported measurement: 0.597

Tell me the measured composite z-score of `O=C1N(Cc2ccccc2)c2ccccc2C[C@]12N=C(c1ccc(OCCCO)cc1)O[C@@H]2c1ccccc1` , please.
0.274

---

Each entry below carries its reported composite z-score.
# assay protocol: binders of probe aHhip on microarray, primary screen, stem cell growth factor project, biochemical, small-molecule microarray, fluorescence 635/667 (AID 1087);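 further: score merges spot fluorescence at 667nm with spot signal to noise ratio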
# recorded conditions: higher = more signal
Form: value (number only, do not type unit).

Worked cases, composite z-score given:
- molecule: "CC(C)C[C@@H]1NC(=O)[C@@H]2C[C@H](C(=O)NCCCCCCN)[C@H](c3cccc(OCCO)c3)N2C1=O"
  observation type: "composite z-score"
  reported measurement: -0.121
- molecule: "O=C1OCCC=C[C@H]2OC34C=CCN(Cn5nnc6ccccc65)C(=O)[C@H]3N(CCCO)C(=O)[C@@H]4C12 (some centres undefined)"
  observation type: "composite z-score"
  reported measurement: -0.236
- molecule: "COc1cc(NN2C(C(O)c3cc(OC)c(OC)c(OC)c3)C=CC3C(=O)N(C)C(=O)C32)cc(OC)c1OC (centres undefined)"
  observation type: "composite z-score"
  reported measurement: 0.12
- molecule: "CCN(CC)c1ccc(N2CC=CC34O[C@@H]5/C=C\\CCCOC(=O)C5[C@H]3C(=O)N(C(C)CO)[C@@H]4C2=O)cc1 (some centres undefined)"
  observation type: "composite z-score"
  reported measurement: -0.236
- molecule: "[N-]=[N+]=Nc1ccccc1C[C@]1(C(=O)N2CCOCC2)COC(c2ccc(OCCCO)cc2)=N1"
  observation type: "composite z-score"
  reported measurement: -0.0617

Fill blank: measured composite z-score of the molecule `CCOC(=O)C[C@H]1[C@H](OC(=O)c2ccc(C(=O)c3ccccc3)cc2)[C@@H](NC(=O)c2ccc3ccccc3n2)c2cc(OCCCO)ccc2N1C(=O)Cc1ccc(OC)cc1` is ____.
0.0501

What value of composite z-score has been recorded for this entry: `CN(C)C(=O)[C@@]1(Cc2ccccc2CN=[N+]=[N-])N=C(c2ccc(OCCCO)cc2)O[C@H]1c1ccccc1N=[N+]=[N-]`
0.0071

---

# Test system: Plasmodium falciparum Sir2 (PF13_0152, Sir2A)
# assay protocol: Plasmodium falciparum Sir2A binding compounds – biochemical, small-molecule microarray, 635 nm fluorescence, primary screen (AID 1098);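 further: score merges spot fluorescence intensity with its signal-to-noise ratio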
# recorded conditions: fluorescence 635 nm, higher = more signal
Items are presented alongside their recorded composite z-score.
Answer with a number only.

- compound: "CCOC(=O)C=Cc1cccc(C)c1O"
  reported measurement: 0.995
- compound: "O=C1NC(=O)C2C1C=CC(C(O)c1ccco1)N2Nc1ccc(Cl)cc1Cl (stereo not drawn)"
  reported measurement: 0.029
- compound: "CCOC(=O)C[C@H]1[C@H](OC(=O)c2ccc(-c3ccccc3)cc2)[C@@H](NC(=O)CC(C)C)c2cc(OCCCO)ccc2N1C(=O)c1ccc2ccccc2n1"
  reported measurement: 0.988
- compound: "NC(=O)NCC#Cc1ccc2c(c1)[C@]1(C(=O)N2)[C@H](c2ccccc2OCCO)N2[C@H](c3ccccc3)[C@H](c3ccccc3)OC(=O)[C@H]2[C@@H]1C(=O)NC[C@H](O)c1ccccc1"
  reported measurement: 0.342
- compound: "O=C(Cc1ccccc1)[C@H]1C2C=CCCC(c3ccccc3)=C2CN1Cc1ccccc1 (stereo partly drawn)"
  reported measurement: -0.313
- compound: "[N-]=[N+]=Nc1ccccc1C[C@]1(C(=O)N2CCOCC2)COC(c2ccc(OCCCO)cc2)=N1"
  reported measurement: 1.6
- compound: "CC#CCO[Si](C#Cc1ccccc1)(C(C)C)C(C)C"
  reported measurement: -0.849

# next compound below
Report composite z-score for `O=C1C[C@]2(c3ccc([N+](=O)[O-])cc3)C(=O)N(C3CC3)c3cc(CO)ccc3[C@H]2N1CC12CC3CC(CC(C3)C1)C2` please.
0.437
